tested on: UACC-257 melanoma; assay: NCI-60 one-dose screen, 48 h (100 = growth as untreated, 0 = no growth, -100 = all killed); settings: 10 µM unless noted
This is part of a sample that, as a whole, favours compounds with a hit. Of some 83,000 tested, about 20% had one in any assay. Calls of active or inactive are those of the source. The calls were made as follows: active = growth percent below 10; inactive = the rest.
quantity-name: growth

1) COC(=O)c1nc(=S)[nH]c(C(=O)OC)c1C(=O)c1ccccc1 :: 123% (inactive)
2) CC(C)(C)C1CCC(=NO)CC1 (stereo not given) :: 76.4% (inactive)
3) CCOc1ccc(/C=C\C(=O)O)cc1 :: 109% (inactive)
4) CN(C=O)c1ccccc1 :: 103% (inactive)
5) Clc1ccc2sc(-c3ccccc3)nc2c1 :: 65.6% (inactive)
